- SYSTEM_UNDER_TEST: Follistatin-related protein 3 (Homo sapiens)
- PROTOCOL_NOTES: FSTL3 binders on small-molecule microarrays, primary screen, biochemical, small-molecule microarray, 635 nm fluorescence (AID 1105);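 also: score merges emission near 667 nm and signal to noise per printed spot across three slides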
- STUDY_CONDITIONS: FSTL3 binding, higher = more signal
Outcome label depends on composite z-score relative to 0.6: at/above gives TRUE, below gives FALSE.

Some solved cases for reference:
- MOLECULE: "COCCOC(=O)N1C(=O)[C@@]2(c3cc(C#CCCO)ccc31)[C@H](c1ccc(O)cc1)N1[C@H](c3ccccc3)[C@H](c3ccccc3)OC(=O)[C@H]1[C@@H]2C(=O)N1CCc2cc(OC)c(OC)cc2C1"
  CAT: "TRUE"
- MOLECULE: "CO[C@H]1O[C@H](CO)[C@@H](OC(=O)Nc2ccc(C(F)(F)F)cc2)[C@H](OC(=O)Nc2ccccc2-c2ccccc2)[C@@H]1OC(=O)Nc1ccccc1-c1ccccc1"
  CAT: "TRUE"
- MOLECULE: "O=C1C2C=CC(C(O)c3cccc(O)c3)N(Nc3ccccc3F)C2C(=O)N1c1ccccc1 (stereo not drawn)"
  CAT: "FALSE"

Kindly determine if composite z-score recorded for C=CCC(OC(C)=O)[C@@H]1[C@@H](N(Cc2ccc(-c3cccc(C(F)(F)F)c3)o2)C(=O)Cc2ccc(OC)cc2)c2cc(OCCCO)ccc2N1C(=O)c1ccc2ccccc2n1 (stereo partly drawn) is above or exactly 0.6. FALSE

Kindly determine if composite z-score recorded for N#Cc1ccc(C(O)C2C=CC3C(=O)NC(=O)C3N2Nc2ccccn2)cc1 (stereo not drawn) is above or exactly 0.6. FALSE

Kindly determine if composite z-score recorded for CN(C)CCCCNC(=O)[C@H]1C[C@H]2C(=O)NCC(=O)N2[C@H]1c1cccc(OCCO)c1 is above or exactly 0.6. FALSE

Kindly determine if composite z-score recorded for COCCOC(=O)N1C(=O)[C@@]2(c3cc(C#CCCO)ccc31)[C@H](C(=O)N1CCN(c3ncccn3)CC1)[C@H]1C(=O)O[C@H](c3ccccc3)[C@H](c3ccccc3)N1[C@@H]2c1ccc(O)cc1 is above or exactly 0.6. TRUE

Kindly determine if composite z-score recorded for COc1ccc(NN2C(C(O)c3cc(C(F)(F)F)cc(C(F)(F)F)c3)C=CC3C(=O)N(C4CCCCC4)C(=O)C32)cc1 (stereo not drawn) is above or exactly 0.6. FALSE

====

- SYSTEM_UNDER_TEST: Torsin-1A-interacting protein 1 (Homo sapiens) (UniProt Q5JTV8)
- Sequence (Q5JTV8 whole entry, looked up): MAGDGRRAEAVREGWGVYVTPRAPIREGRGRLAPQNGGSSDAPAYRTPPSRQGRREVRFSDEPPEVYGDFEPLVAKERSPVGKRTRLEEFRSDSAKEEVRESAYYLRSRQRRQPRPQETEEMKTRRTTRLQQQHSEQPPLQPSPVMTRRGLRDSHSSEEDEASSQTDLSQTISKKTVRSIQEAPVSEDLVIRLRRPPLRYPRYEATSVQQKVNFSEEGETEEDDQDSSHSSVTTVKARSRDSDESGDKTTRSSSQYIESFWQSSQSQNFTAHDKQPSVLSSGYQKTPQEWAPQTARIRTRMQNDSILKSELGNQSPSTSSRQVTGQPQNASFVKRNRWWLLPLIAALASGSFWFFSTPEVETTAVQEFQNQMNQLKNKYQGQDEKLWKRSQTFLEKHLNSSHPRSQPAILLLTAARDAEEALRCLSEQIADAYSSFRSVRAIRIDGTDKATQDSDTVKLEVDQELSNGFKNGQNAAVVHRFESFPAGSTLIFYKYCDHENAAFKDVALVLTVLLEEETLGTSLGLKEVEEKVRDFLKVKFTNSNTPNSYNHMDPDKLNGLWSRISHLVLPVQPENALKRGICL
- PROTOCOL_NOTES: LAP1 binders from COS7 cell lysate, primary screen, small-molecule microarray, 635/667 nm fluorescence (AID 1116)
- STUDY_CONDITIONS: COS7-hLAP1 lysate binding, 635 nm fluorescence, higher = more signal
OBSERVATION_TYPE: composite z-score
Answer with a bare number; do not write a unit.

Below, 3 compounds whose answers are already recorded.
- COMPOUND: "CC1CC/C=C\\[C@H]2OC34C=CCN(CCN5CCOCC5)C(=O)[C@H]3N(CCCCCCO)C(=O)[C@@H]4C2C(=O)O1 (some centres undefined)"
  REPORTED_MEASUREMENT: -0.933
- COMPOUND: "CN(C)C(=O)[C@]1(Cc2ccccc2)N=C(c2ccc(OCCCO)cc2)O[C@@H]1c1ccccc1"
  REPORTED_MEASUREMENT: 1.8
- COMPOUND: "CCCC[C@H]1OB(O)C[C@H]2C1=C(C)C[C@H]1C(=O)C=CC(=O)[C@H]12"
  REPORTED_MEASUREMENT: 0.0514

Briefly, composite z-score measured for COCC1=C([C@H](O)CCc2ccccc2)[C@H](CO)n2c(=O)n(-c3ccccc3)c(=O)n2C1 : -0.103
